- ASSAY_COMMENT: chemical genetic growth profiling, strain panel (AID 1159580);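 also: tested at 20 µM; growth read once vehicle control cultures reached saturation at 30 °C; 1 = growth at the plate median or of vehicle wells; lower values mean less growth of the strain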
- SETTINGS: S. cerevisiae deletion strains, growth OD, locus YHR079C, strain IRE1 (second series)
Among all 5,500 compounds or so, about 2,000 (36%) were called active. About 18% were inconclusive and are not listed. Rule as the data show it: active = normalized growth mostly below about 0.91 (no sharp cut-off); inconclusive = no clear call, values can overlap the other calls; inactive = mostly above about 0.92. This is one part of the list.
Response enum: YES = active, NO = inactive

I would be grateful if you could indicate the recorded call for CC(=O)CC1CCCCN1 (stereo unspecified) .
NO

I would be grateful if you could indicate the recorded call for COC(=O)C[C@H]1C(C)(C)[C@@H](O)[C@@H]2CC3=C4C=C(OC)O[C@@H](c5ccoc5)[C@]4(C)CCC3[C@@]1(C)C2=O (stereo partly specified) .
NO

I would be grateful if you could indicate the recorded call for `CCCc1nc2c(C)cc(-c3nc4ccccc4n3C)cc2n1Cc1ccc(-c2ccccc2C(=O)O)cc1` .
NO

I would be grateful if you could indicate the recorded call for `NC(N)=NC(N)=Nc1ccccc1` .
NO

I would be grateful if you could indicate the recorded call for `CCCCc1nc(Cl)c(CO)n1Cc1ccc(-c2ccccc2-c2nn[nH]n2)cc1` .
NO

I would be grateful if you could indicate the recorded call for C1CCC(C(CC2CCCCN2)C2CCCCC2)CC1 (stereo unspecified) .
NO

I would be grateful if you could indicate the recorded call for COC1(C)CCC2OC2(C)CCC2C1CC2(C)C (stereo unspecified) .
NO

I would be grateful if you could indicate the recorded call for CC(=O)OCC1=C(C(=O)O)N2C(=O)[C@@H](NC(=O)CCCC(N)C(=O)O)C2SC1 (stereo partly specified) .
NO

I would be grateful if you could indicate the recorded call for `Cc1c(NC(=O)c2cccnc2)c(=O)n(-c2ccccc2)n1C` .
NO

I would be grateful if you could indicate the recorded call for `NC(=O)N1c2ccccc2C=Cc2ccccc21` .
NO

I would be grateful if you could indicate the recorded call for `CC(=O)[O][Hg][c]1ccccc1` .
YES

====

- ASSAY_COMMENT: chemical genetic growth profiling, strain panel (AID 1159580);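 also: tested at 20 µM; growth read once vehicle control cultures reached saturation at 30 °C; 1 = growth at the plate median or of vehicle wells; lower values mean less growth of the strain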
- SETTINGS: S. cerevisiae deletion strains, growth OD, locus YNL128W, strain TEP1, stronger effect = lower value
In all, about 5,500 compounds went through this assay and about 2,000 (36%) were called active. Roughly 18% stayed inconclusive and do not appear here. Some of the results follow.
Labelling: normalized growth reported below 1 becomes Satisfied; at or above becomes Not satisfied.

Threshold test, normalized growth < 1: `CCC1(CC)C(=O)C=CNC1=O`
Not satisfied

Threshold test, normalized growth < 1: `CN1CCN(CC(=O)N2c3ccccc3C(=O)Nc3cccnc32)CC1`
Not satisfied

Threshold test, normalized growth < 1: `O=c1c(O)c(-c2ccc(O)c(O)c2)oc2cc(O)ccc12`
Satisfied

====

- ASSAY_COMMENT: chemical genetic growth profiling, strain panel (AID 1159580);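 also: tested at 20 µM; growth read once vehicle control cultures reached saturation at 30 °C; 1 = growth at the plate median or of vehicle wells; lower values mean less growth of the strain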
- SETTINGS: S. cerevisiae deletion strains, growth OD, locus YER167W, strain BCK2, stronger effect = lower value
The whole screen tested about 5,500 compounds, of which about 2,000 (36%) were called active. Not shown: some 18% with an inconclusive outcome. The list shows a part of the results. Where a SMILES comes first, the peptide text is derived from it. Bridges are numbered along the chain shown (N, C = ends). [ ]: non-standard residue; d: D form. The star is where a group is joined. Octanoyl(6-Me) = CCC(C)CCCCC(=O)*; Dab = NCC[CH](N)C(=O)O
ENDPOINT_NAME: normalized growth
Just the number.

Item NC1C[C@H]1c1ccccc1 (stereo partly drawn) : provide normalized growth
1.01

Item CCC(C)CCCCC(=O)NC(CCN)C(=O)NC(C(=O)NC(CCN)C(=O)NC1CCNC(=O)C(C(C)O)NC(=O)C(CCN)NC(=O)C(CCN)NC(=O)C(CC(C)C)NC(=O)C(Cc2ccccc2)NC(=O)C(CCN)NC1=O)C(C)O (stereo not drawn) ({Octanoyl(6-Me)}-[Dab]T[Dab][Dab][Dab]FL[Dab][Dab]T; lactam 4-C; configuration not given here) : provide normalized growth
0.996

Item `COc1cc(O)cc(OC)c1OC` : provide normalized growth
1.02
